- Tested on: HCT-15 colon
- procedureDetails: NCI tumour cell line growth inhibition, 48 h
This listing pairs compounds with measured TGI.
quantity: TGI

compound	studyTarget	experimentalValue
COc1ccc(-c2nc(-c3cnccn3)n(C3OC(CO)C(O)C3O)n2)cc1 (stereo not drawn)	HCT-15 colon	> 10 µM
O=C1OC(=O)C([Se]c2ccccc2)=C1[Se]c1ccccc1	HCT-15 colon	> 100 µM
Cc1cc(Cl)ccc1NC(=O)C1C(=O)N(c2ccc(Cl)cc2C)C(=O)/C1=N\NC(N)=S (stereo not drawn)	HCT-15 colon	34.4 µM
CN(CCc1ccccn1)c1ccc2c(c1)C(=O)c1ccccc1-2	HCT-15 colon	> 100 µM
C=C1CC[C@H]2C(C)=CC[C@H]3C(=C)C(=O)O[C@@H]3[C@@H]12	HCT-15 colon	> 100 µM
Cc1ccc(C(=O)Oc2ccccc2)cc1N=NN(C)C	HCT-15 colon	> 100 µM
COc1cc(C2S/C(=C/c3ccccc3)C(=O)N2c2cccc(NC(C)=O)c2)cc(OC)c1OC (stereo not drawn)	HCT-15 colon	> 100 µM
CN=c1sc2nc(C#N)c(C#N)nc2n1C	HCT-15 colon	41.2 µM
CC1=CCC(C(C)(C)NC(=O)c2ccccc2)C/C1=N/O (stereo not drawn)	HCT-15 colon	> 100 µM
COc1cc(C2c3cc4c(cc3C(=O)C3CCC(=O)N32)OCO4)cc(OC)c1O (stereo not drawn)	HCT-15 colon	> 50 µM
OCC(O)C(O)C(O)c1nn(-c2ccc(F)cc2)c2nc3cc(Cl)c(Cl)cc3nc12 (stereo not drawn)	HCT-15 colon	> 100 µM
Cc1cc(NN=C(c2ccc(O)cc2)c2ccc(O)cc2)c([N+](=O)[O-])cc1[N+](=O)[O-]	HCT-15 colon	53.6 µM
O=P(NCCCO)(OCc1ccccc1)N(CCCl)CCCl (stereo not drawn)	HCT-15 colon	> 100 µM
C#C[C@]1(O)CC[C@H]2[C@@H]3CCc4cc(O)ccc4[C@H]3CC[C@@]21C	HCT-15 colon	> 100 µM
CC(O)[C@H](NC(=O)N[C@@H](CC(N)=O)c1nc(N2CCNCC2)no1)C(=O)O (stereo partly drawn)	HCT-15 colon	> 100 µM
COC(=O)c1c(O)ccc2c1c1c(n2Cc2cc(OC)cc(OC)c2)C(=O)c2ccccc2C1=O	HCT-15 colon	21.1 µM
COCC(C(=O)OC1C/C=C/C=C/C(=O)OC(C(C)C(O)C(C)CCC(OC(=O)C(C)N(C)C)C(C)C(OC(C)=O)C(C)/C=C/N(C)C=O)C/C=C/C(OC)CC(C)C/C=C(\C)C(OC)CCC(C)C(O)C1C)N(C)C (stereo not drawn)	HCT-15 colon	0.00194 µM
O=C(O)CCCCC1CCSS1 (stereo not drawn)	HCT-15 colon	> 100 µM
O=CNc1ccccc1OCCOc1ccccc1NC=O	HCT-15 colon	> 100 µM
CCCNCCCCC(NC(C)=O)C(=O)NCc1ccccc1 (stereo not drawn)	HCT-15 colon	> 100 µM
COc1ccc(Br)c(C(=O)N2CCc3ccccc32)c1N	HCT-15 colon	> 100 µM
O=C1CCC(=O)N1Sc1ccccc1	HCT-15 colon	> 100 µM
C1CCCN(NC2=NCCO2)CC1	HCT-15 colon	> 100 µM

* * *

- System: K-562 leukemia
- procedureDetails: NCI tumour cell line growth inhibition, 48 h
This listing pairs compounds with measured TGI.
quantity: TGI

>>> df
                                    compound     studytarget  quantity  experimentalvalue
 0          CNC(=O)OCc1nc(SC)n(C)c1COC(=O)NC  K-562 leukemia       TGI             508 µM
 1  CC1=NN(c2nc(N)nc(/C(C#N)=C\c3ccc(-c4ccc([N+](=O)[O-])cc4)o3)n2)C(C)(C)C1  K-562 leukemia       TGI           > 100 µM
 2  COc1ccc2c(c1OC)O/C(=C\c1ncc([N+](=O)[O-])n1C)C2=O  K-562 leukemia       TGI            7.99 µM
 3  CCCCCCCCCCCCCCCCNC(=O)/C(=C\c1ccc(Cl)c(Cl)c1)NC(=O)c1ccccc1  K-562 leukemia       TGI            64.3 µM
 4                      C1CCCN(NC2=NCCO2)CC1  K-562 leukemia       TGI           > 100 µM
 5  CC1(C)N=C(N)N=C(N)N1c1cccc(CCc2ccccc2)c1  K-562 leukemia       TGI           > 100 µM
 6    O=C1NC(N/N=C\c2ccccc2)=N/C1=C/c1ccccc1  K-562 leukemia       TGI           > 100 µM
 7  O=C1C(=O)C2(CC1S(=O)(=O)c1ccccc1)c1ccccc1-c1ccccc12 (stereo unspecified)  K-562 leukemia       TGI            59.3 µM
 8                     COc1ccc(CCn2cncn2)cc1  K-562 leukemia       TGI           > 100 µM
 9  COc1ccc(-c2c(N)noc2-c2cc(OC)c3c(c2)OCCO3)cc1  K-562 leukemia       TGI           > 100 µM
10  Cc1nc2ccccc2c(=O)n1/N=C(\N=Nc1cc(Cl)ccc1Cl)c1ccccc1  K-562 leukemia       TGI           > 100 µM

These measurements were taken from PubChem BioAssay (NCI).
